# study target: Recombinant Human Poly(ADP-Ribose) Polymerase (PARP) (Homo sapiens, UniProt P09874)
# Sequence (P09874 whole entry): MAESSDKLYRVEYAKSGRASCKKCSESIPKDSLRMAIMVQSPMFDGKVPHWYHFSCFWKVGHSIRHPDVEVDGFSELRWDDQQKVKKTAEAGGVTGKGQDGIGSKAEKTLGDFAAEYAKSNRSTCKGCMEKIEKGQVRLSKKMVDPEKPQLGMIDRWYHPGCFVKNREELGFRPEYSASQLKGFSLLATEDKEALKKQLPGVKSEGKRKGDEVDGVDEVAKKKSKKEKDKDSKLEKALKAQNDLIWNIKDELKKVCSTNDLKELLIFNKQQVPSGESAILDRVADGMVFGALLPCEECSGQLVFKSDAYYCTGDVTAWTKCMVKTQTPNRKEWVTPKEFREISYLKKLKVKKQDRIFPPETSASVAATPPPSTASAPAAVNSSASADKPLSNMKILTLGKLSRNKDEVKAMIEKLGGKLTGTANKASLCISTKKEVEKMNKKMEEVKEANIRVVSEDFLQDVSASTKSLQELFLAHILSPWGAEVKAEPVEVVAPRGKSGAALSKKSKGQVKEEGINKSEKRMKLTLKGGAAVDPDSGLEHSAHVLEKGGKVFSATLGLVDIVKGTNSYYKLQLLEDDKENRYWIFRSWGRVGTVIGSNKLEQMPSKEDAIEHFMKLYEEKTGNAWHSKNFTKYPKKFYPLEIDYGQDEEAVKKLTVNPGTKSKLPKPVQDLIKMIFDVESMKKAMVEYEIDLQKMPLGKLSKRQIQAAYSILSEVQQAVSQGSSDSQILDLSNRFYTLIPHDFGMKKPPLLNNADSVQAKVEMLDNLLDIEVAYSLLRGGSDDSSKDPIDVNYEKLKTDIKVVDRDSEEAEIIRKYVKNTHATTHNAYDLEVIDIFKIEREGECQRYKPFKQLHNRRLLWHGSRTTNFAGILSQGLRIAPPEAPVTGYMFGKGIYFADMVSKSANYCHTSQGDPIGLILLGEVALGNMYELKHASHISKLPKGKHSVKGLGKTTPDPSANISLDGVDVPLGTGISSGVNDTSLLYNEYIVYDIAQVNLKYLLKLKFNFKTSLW
# procedure details: PARP1 inhibition assay ([3H]-NAD+, biotinylated histone H1, FlashPlate/SPA)
# measurement parameters: from inhibition curves at various substrate concentrations
measurement name: Ki (nM)
Number in nM, nothing else.

Below are worked cases with known answers.
[[record]]
molecule = "CC1(c2nc3c(C(N)=O)cccc3[nH]2)CCN1C1CCC1 (centres unmarked)"
recorded_value = 33.3

[[record]]
molecule = "CCCN1CCC[C@H]1c1nc2c(C(N)=O)cccc2[nH]1"
recorded_value = 129

[[record]]
molecule = "CC1(c2nc3c(C(N)=O)cccc3[nH]2)CCN1C1CCCCC1 (centres unmarked)"
recorded_value = 27.7

[[record]]
molecule = "NC(=O)c1cccc2[nH]c(C3CCN3C3CCCCC3)nc12 (centres unmarked)"
recorded_value = 245

[[record]]
molecule = "NC(=O)c1cccc2[nH]c(C3CCN(C4CCCCC4)C3)nc12 (centres unmarked)"
recorded_value = 7


Consider the molecule shown here: CC(C)N1CCC(c2nc3c(C(N)=O)cccc3[nH]2)CC1 What is its recorded Ki?
6

Would you mind doing NC(=O)c1cccc2[nH]c(C3CN(C4CCCCC4)C3)nc12 as well?
16

Would you mind doing CCCN1CCC(C)(c2nc3c(C(N)=O)cccc3[nH]2)CC1 as well?
13.5

Would you mind doing CCCN1CCCC1(C)c1nc2c(C(N)=O)cccc2[nH]1 (centres unmarked) as well?
18.7

Would you mind doing CC(C)N1CCC[C@H]1c1nc2c(C(N)=O)cccc2[nH]1 as well?
19.3

Would you mind doing CC(C)CN1CC(c2nc3c(C(N)=O)cccc3[nH]2)C1 as well?
14.4
